- Tested on: U251 CNS
- protocol-details: NCI tumour cell line growth inhibition, 48 h
Exercise: for every item that follows, state its recorded TGI.

Take a look at these entries with their results.
Problem: Identify the measured TGI of `O=C(O)CCc1nn2c(nc1=O)sc1ccc3ccccc3c12` for U251 CNS.
Solution: > 100 µM

Problem: Identify the measured TGI of `COc1ccccc1C(=O)c1c(NCc2ccccc2)c(=O)c1=O` for U251 CNS.
Solution: > 100 µM

Problem: Identify the measured TGI of `Cc1cc2c(C)nn(Cc3ccc(Cl)cc3)c2c(C#N)c1C` for U251 CNS.
Solution: > 100 µM

Problem: Identify the measured TGI of `CCOC(=O)c1ccc(N=c2sc3ccccc3nc2Nc2ccc(C(=O)OCC)cc2)cc1` for U251 CNS.
Solution: > 100 µM

Problem: Identify the measured TGI of CC1OC(n2cc(F)c(=O)[nH]c2=O)C=CC1=O (stereo not drawn) for U251 CNS.
Solution: 27.9 µM

Problem: Identify the measured TGI of `N#Cc1cccc(/C=N/N=C(\N)NO)c1` for U251 CNS.
Solution: > 100 µM

Problem: Identify the measured TGI of CCOC(=O)C(SCCO)C(C(=O)OCC)n1ccc(=O)[nH]c1=O (stereo not drawn) for U251 CNS.
Solution: 82.9 µM

Problem: Identify the measured TGI of N#CC1CCCCCCCCCCC(=O)N(CCCl)C1=O (stereo not drawn) for U251 CNS.
Solution: > 100 µM

Problem: Identify the measured TGI of `Cc1ccc(Cl)cc1NC(=O)c1sc2nc3c(cc2c1N)C(=O)CCC3` for U251 CNS.
Solution: > 100 µM

Problem: Identify the measured TGI of Cn1c2ccccc2c(=O)c2cccc(C(=O)NC(CCC(N)=O)C(=O)O)c21 (stereo not drawn) for U251 CNS.
Solution: > 100 µM

Give TGI for each listed item.
1. COc1cc(C2CC(c3ccc(Nc4ccnc5cc(Cl)ccc45)cc3)=NN2c2ccc(Cl)cc2)cc(OC)c1OC (stereo not drawn)
2. O=C(NNC(=S)NC1CCCCC1)c1csc(NC(=S)NC2CCCCC2)n1
3. CN(Cc1cc(C(C)(C)C)cc(Br)c1O)Cc1cc(C(C)(C)C)cc(Br)c1O

Solution:
1. > 100 µM
2. 20.2 µM
3. 8.15 µM

* * *

Exercise: for every item that follows, state its recorded TGI.
- System: TK-10 renal
- protocol-details: NCI tumour cell line growth inhibition, 48 h

Take a look at these entries with their results.
Problem: Value lookup for TGI; key = `O=C(O)CCc1nn2c(nc1=O)sc1ccc3ccccc3c12`
Solution: > 100 µM

Problem: Value lookup for TGI; key = Cc1cn(CC2=NCC(C)N2)c(=O)[nH]c1=O (stereo not given)
Solution: > 100 µM

Problem: Value lookup for TGI; key = `Cc1cccc(NC(=O)c2cccc([N+](=O)[O-])c2O)c1C`
Solution: > 100 µM

Problem: Value lookup for TGI; key = `O=c1c(O)c(-c2cc(O)c(O)c(O)c2)oc2cc(O)cc(O)c12`
Solution: > 100 µM

Now for the compound whose TGI we want.
Problem: Value lookup for TGI; key = NCCCNCCCCNC(=O)C(O)NC(=O)CCCCCCN=C(N)N (stereo not given)
Solution: > 5000 µM
